Just for reference, the supplement of paper PMC10567573 is where these values come from.

Give measured protein stability index for each item. Keep answers brief.
B1: INTS4 (parent)
chain: IRLVDDAFGKICHMVSDGSWVVRV

# Variants of: B1
# assay-comment: protein stability index of a GFP-peptide fusion (GPS, HEK-293T) (PSI 1-6); higher = more stable;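 further: lentivirally expressed fusions sorted by FACS into six bins by GFP to DsRed ratio, PSI derived from sequencing read proportions per bin multiplied by bin number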
# measurement-context: c terminus: a fixed tail appended
Give bare numbers.

Example entries begin here.
>>> print(df.to_string())
   variant_designation  result
0                 G18D    3.61
1                  D5A    2.73
2                 V15P    3.17

Take each entry in turn and give its protein stability index.
1. R23S
2. V15L
3. S16N

Output:
1: 2.39; 2: 2.74; 3: 2.52

Value sought for every listed variant: protein stability index.
1. C12D
2. V24Q
3. V22R
4. D17M
5. H13M
6. V24K

Output:
3.58
2.04
3.28
1.92
3.09
1.58

Quick batch: protein stability index for everything below.
1. S19M
2. H13Y
3. W20V
4. V22C
5. D5F
6. V4P
7. V15D
8. V4C

Output:
1: 2.38; 2: 2.38; 3: 3.08; 4: 3.31; 5: 4.33; 6: 2.57; 7: 2.06; 8: 2.16
